test system: K-562 leukemia; test: NCI-60 one-dose screen, 48 h (100 = growth as untreated, 0 = no growth, -100 = all killed); conditions: 10 µM unless noted
Compounds without any hit were thinned out: in the full panel of roughly 83,000, 20% have a hit.
ATTRIBUTE MEASURED: growth (%)
// return numeric value only (unit: %, not printed)

Using the record for COc1cccc2c1C=C1CCCCC3=Cc4c(OC)cccc4OC13O2 , report its growth.
17.4

// returns reported growth for input COc1ccc(/C(C#N)=C/c2nc3c(N4CCOCC4)nc(Cl)nc3n2C)cc1OC
0.867

// returns reported growth for input COC(=O)/C(CCC=C(C)C)=C1\[C@@H](OC(C)=O)C[C@@]2(C)[C@H]1C[C@@H](O)[C@H]1[C@@]3(C)CC[C@H](NCc4ccccc4)[C@@H](C)[C@@H]3CC[C@@]12C
11

So what's the measured growth for this one? O=C1NC(=S)NC(=O)C1=Cc1cn(Cc2cn(Cc3cccc4ccccc34)nn2)c2ccccc12
121

Which growth is listed for O=C(NC1C(O)OC(CO)C(O)C1O)NS(=O)(=O)c1ccc(Cl)cc1 (stereo not given) ?
108

Returns the measured growth for the input compound. Input: O=S1(=O)N(Cc2ccccc2)[C@@H](Cc2ccccc2)C2O[C@H]2[C@H](Cc2ccccc2)N1Cc1ccccc1 (stereo not given in full)
23.4

Given Oc1c(CN2CCN(c3ccccc3F)CC2)cc(Br)c2cccnc12 , state its recorded growth.
1.01

Sample O=C(Nc1nc2c(s1)CCc1c-2c(Br)n(Cc2ccccc2)c1Br)c1ccccc1 — what was its growth?
56.8

Quick one: growth for COc1ccccc1N1CCN(C(CNS(=O)(=O)c2ccc(Cl)cc2)c2cccnc2)CC1 (stereo not given) ?
28.4

Requested field: growth. Item: Nc1nc2c(ncn2[C@@H]2O[C@H](CS)[C@@H](O)[C@H]2O)c(=O)[nH]1
97.2

Item CC/C=C\C[C@H](O)C/C=C1/C(=O)C=C[C@@H]1C/C=C\CCCC(=O)OCCS(=O)(=O)c1ccccc1 has what recorded growth?
7.77

Query (compound): CC[C@H](C)[C@@H](C(=O)OC)n1cc(CNC(=O)[C@@H](Cc2ccccc2)NC(=O)OCc2ccccc2)nn1 ; field requested: growth
95.9

Given Cc1cc(Br)c(N)c(Br)c1 , state its recorded growth.
90

Record request: growth value, item Cc1cccc2c(=O)c3c(sc12)c(NCCN)nc1ccccc13
-45.2

Item S=C1CCCC(=S)N1 has what recorded growth?
104

What measured growth goes with CCOC(=O)CSc1c(-c2ccccc2)c2cc(Cl)ccc2[nH]c1=O ?
84.1

Quick one: growth for CCn1c(SCC(=O)Nc2cc(C(F)(F)F)ccc2Cl)nc2ccccc2c1=O ?
-46.2

Entry O=C(Nc1ccc(N2CCNCC2)cc1)c1[nH]ncc1Nc1ncnc2sc3c(c12)CCC3 has what growth?
-62.7

# lookup: growth of O=C(COc1cc(O)c2c(=O)cc(-c3ccccc3)oc2c1)Nc1ccccc1C(F)(F)F
49.2

For CCOc1cc(Cl)c(C(C)NC(=O)c2cccc(OC)c2)cc1OCC (stereo not given) , what is its reported growth?
-25.7

What does the data say about its growth? Entry: Nc1no[n+]([O-])c1-c1nnc2c(n1)-c1ccccc1C2=O
-14.9

Returns the measured growth for the input compound. Input: O=C1OC(c2ccccc2)(c2ccccc2)c2ccsc21
87

Looking for the measured growth of CCCCN1CCN(c2ccc3nc(-c4ccc5nc(-c6ccc(OCC)cc6)[nH]c5c4)[nH]c3c2)CC1 , can you help?
-29.1

Which growth is reported for this compound? O=C(/C=C/c1ccc(Cl)cc1)c1ccc(Nc2nc(NCCO)nc(Nc3ccc(Cl)cc3)n2)cc1
37.6

Look up growth for this compound: O=Cc1c(OCc2cnnn2CC(=O)Nc2ccc(Br)cc2)ccc2ccccc12
91.4

Look up growth: CCCC(=O)CC(C)=O.CCCC(=O)CC(C)=O.[Cu]
104

# query: growth of entry O=C(Nc1ccc(C23CC4CC(CC(c5ccccc5)(C4)C2)C3)cc1)c1cccs1
26.5

Fill in: growth of COc1ccc(C2=Nn3c(NN)nnc3SC2)cc1 is ___
83.3

State the recorded growth for this entry: CC(=O)c1ccc2oc(=O)n(Cc3ccc(C#N)cc3)c(=O)c2c1
117

Dear colleague, I am looking for the recorded growth of the following compound: CCCCc1ccc(NS(=O)(=O)c2cc3c4c(c2)CCN4C(=O)CC3)cc1
7.56

# query: growth of entry CSc1nc2c(c(=O)n1C)N=C1c3ccccc3C(=O)C1C(c1ccccc1)N2 (stereo not given)
32.9

Field request: growth | item: NS(=O)(=O)c1ccc(CCN=C=S)cc1
5.24

Which growth value is on record for COc1cc(/C=C/C(=O)c2ccc(Nc3nc(NCCO)nc(N4CCOCC4)n3)cc2)cc(OC)c1OC ?
10.7

Item under review: CC(C)CCNCC(O)Cn1c2ccccc2c2ccccc21 (stereo not given) . Reported growth?
1.84

Reported growth for COc1ccc(OC)c(/C=C/C(=O)c2c(C)nc3ccccc3c2/C=C/c2ccccc2)c1 : what is it?
17

====

test system: OVCAR-8 ovarian; assay: NCI-60 one-dose screen, 48 h (100 = growth as untreated, 0 = no growth, -100 = all killed); settings: 10 µM unless noted
About 83,000 compounds went through this panel and 20% of them were active in at least one assay; those are over-represented in the sample as a whole.
ATTRIBUTE MEASURED: growth (%)
Reply numerically in %, unit not repeated.

What value of growth has been recorded for this entry: FC(F)(F)c1cccc(Nc2nc(-c3ccccc3)nc3ncccc23)c1
89.4

I have this compound here, CC1(C)CC2(C)OC2C2(C1)N=NC(=Nc1ccccc1)O2 (stereo not drawn) , and I need its recorded growth.
77.8

// growth lookup, key: COC(=O)[C@@H]1CCCN1C(=O)[C@H]1CCCN1C(=O)[C@@H](Cc1c[nH]c2ccccc12)NC(=S)Nc1cc(C(F)(F)F)cc(C(F)(F)F)c1
61.3

====

test system: HCT-15 colon; experiment: NCI-60 one-dose screen, 48 h (100 = growth as untreated, 0 = no growth, -100 = all killed); conditions: 10 µM unless noted
About 83,000 compounds went through this panel and 20% of them were active in at least one assay; those are over-represented in the sample as a whole.
Kind request: treat 70% as inclusive, so growth at 70% or higher is Yes, anything lower is No.

I'd appreciate it if you could say whether CN1C(=O)N(C)C2Nn3c(s/c(=C4\C(=O)N(CCc5ccccc5)c5ccccc54)c3=O)=NC21 (stereo not drawn) has growth at least equal to 70%.
No

# check: growth of CCOC(=O)c1cc2c(n1Cc1cc(OC)c(OC)c(OC)c1)-c1oncc1CCC2 is greater than or equal to 70%
No

Assess whether reported growth for CCN1C(=O)N(CC)C2C1NN=c1s/c(=C3\C(=O)N(C(C)C)c4ccccc43)c(=O)n12 (stereo not drawn) sits at 70% or higher.
No

Hi team, for CCOC(=O)C1=C(C)N=c2s/c(=C\c3ccccc3O)c(=O)n2C1c1ccc(OC)c2ccccc12 (stereo not drawn) , is the recorded growth at or above 70%?
No

Decide: growth of CC(=O)c1ccc2oc(=O)n(Cc3ccc(C#N)cc3)c(=O)c2c1 >= 70%?
Yes

Is the recorded value of growth equal to or greater than 70% for this compound? CCOc1ccccc1CN1CCc2nc3cc(C(C)(C)C)[nH]n3c(=O)c2C1
Yes

Is growth at least 70%? Consider O=C1/C=C/[C@@H](O)[C@@H]2C[C@@H](O)C[C@H]2/C=C/CCCCO1
No

Exam item: decide whether the reported growth for Cc1nc(Nc2cn[nH]c2C(=O)Nc2ccc(CN3CCN(C)CC3)cc2)c2ccsc2n1 is at least 70%.
Yes

Tell me whether growth is at least 70% here: OC(CNC1CCCCC1)Cn1c2ccc(I)cc2c2cc(I)ccc21 (stereo not drawn)
No

Confirm if growth reported for the compound NC1(N2SC(S)=C3CCCC=C32)CCCCC1 is 70% or above.
Yes

Has O=C(NCc1ccccc1)C1CN(c2ccc(Cl)cc2)N(c2ccc(Cl)cc2)C1=O (stereo not drawn) a recorded growth greater than or equal to 70%?
No

Decide: growth of Nc1nc2c(ncn2[C@@H]2O[C@H](CS)[C@@H](O)[C@H]2O)c(=O)[nH]1 >= 70%?
Yes

Could you please find out whether COc1ccc(/C=C2\SC(=Nc3ccccc3)NC2=O)cc1 has growth that meets 70% or exceeds it?
No

Confirm if growth reported for the compound CN(CCc1ccccc1)C(=S)N(C(=O)c1ccc([N+](=O)[O-])cc1)c1ccc(Cl)cc1 is 70% or above.
Yes

Entry Oc1ccc(-c2nc(-c3ccc4oc5ccc(-c6[nH]c(-c7ccc(O)cc7)nc6-c6ccccc6)cc5c4c3)c(-c3ccccc3)[nH]2)cc1 : is its growth no less than 70%?
Yes

Is the recorded value of growth equal to or greater than 70% for this compound? COc1ccccc1N1C(=N)S/C(=C\c2ccc(OCc3ccccc3F)cc2)C1=O
Yes

Hi, just wondering whether CCOC(=O)C1=C(C)N=c2s/c(=C\c3cc(Cl)ccc3O)c(=O)n2C1c1ccc(OC)cc1 (stereo not drawn) shows growth of 70% or higher.
Yes

// inclusive: growth at least 70%? input: COc1ccc(C2=NN(/C=C3\SC(=O)NC3=Nc3ccc(F)cc3)C(c3ccc(F)cc3)C2)cc1 (stereo not drawn)
Yes

Hi, just wondering whether O=C(Nc1ccc(F)cc1F)c1cc(Br)ccc1O shows growth of 70% or higher.
No

Answer whether growth of COc1cc(-c2c3c(cn2S(=O)(=O)c2ccccc2)-c2nc(N)sc2CC3)cc(OC)c1OC is greater than or equal to 70%.
No

# bool: growth of CN1C(=O)N(C)C2C1NN=c1s/c(=C\c3ccc([N+](=O)[O-])cc3)c(=O)n12 (stereo not drawn) >= 70%
No

Kindly determine if growth recorded for O=c1c2cc(F)ccc2sc2c(Nc3ccncc3)nc3ccccc3c12 is above or exactly 70%.
No

Kindly determine if growth recorded for CCn1c(-c2nonc2Nc2ccc(OC)cc2)nc2ccccc21 is above or exactly 70%.
Yes
